experiment: protein stability index of a GFP-peptide fusion (GPS, HEK-293T) (PSI 1-6); higher = more stable; conditions: treatment: MLN4924 1 uM, 8 h; c terminus: a fixed tail appended;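 note: 24-mer peptide tiles fused after GFP, lentivirally expressed, FACS-sorted into six equal bins by GFP/DsRed ratio, decoded by Illumina sequencing, PSI is the read-weighted mean bin number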
Binary classification by protein stability index, with 3 as an inclusive lower bound for YES; all other cases are NO.

[
  {
    "Query sequence": "GASHVLALSTERELFAWGRGDSGR [NEK8]",
    "Class name": "YES"
  },
  {
    "Query sequence": "SLSRNNSFRRNVGRVLLANSTQAD [FBXO34]",
    "Class name": "YES"
  },
  {
    "Query sequence": "LPGAVATIVKPLSAIPQPTITKQE [HNF4A]",
    "Class name": "YES"
  },
  {
    "Query sequence": "HPYSTTFQESASTPETRAKFTQDN [TEKT4]",
    "Class name": "YES"
  },
  {
    "Query sequence": "LPYTDGLSWELLDSHLGGNARGMG [CTBP1-DT]",
    "Class name": "YES"
  },
  {
    "Query sequence": "TVFDANDNAPVFTLPEYRVSVPEN [PCDHGA10]",
    "Class name": "YES"
  },
  {
    "Query sequence": "LEDMGQPPAEEAEQPGALAREFLA [FKBP8]",
    "Class name": "YES"
  },
  {
    "Query sequence": "SAGDADPENGEIKPASKPAGSSHT [ELOA2]",
    "Class name": "YES"
  }
]

Task: Confirm if protein stability index reported for the sequence SELRRTMQALEIELQSQLSMKASL [KRT17] is 3 or above.
Output: NO

Task: Textbook exercise: given the entry MAAMFNGNYMEAKSVLIPVYGVSK [RHOBTB3] , state whether its protein stability index is greater than or equal to 3.
Output: NO

Task: Evaluate SLGLDHCHSFISGTAPLNQETAEF [ACSBG2] : protein stability index at minimum 3?
Output: YES

Task: Is the recorded value of protein stability index equal to or greater than 3 for this sequence? VRLMRQLLVINESIESIKWMIEEK [LURAP1L]
Output: NO

Task: # check: protein stability index of KAQAKVGSLDNAHHVPGGGNVKID [MAP2] is greater than or equal to 3
Output: YES

---

test: protein stability index of a GFP-peptide fusion (GPS, HEK-293T) (PSI 1-6); higher = more stable; details: treatment: DMSO; c terminus: a fixed tail appended
Property measured: protein stability index
One number for each entry.

Quick one: give me protein stability index for each item below, same order please.
1. NDNSPSFATPEREMRISESAASGA [PCDHGC5]
2. PEGKRVPKRLRCWEEEEDHEKERP [FANCE]
3. MENNHTVAITILQDDHDHKVQELM [MTUS2]
4. IISKPVPQTLIMAYDYAKEVNSAE [FEM1C]
5. AFLELPHGSGGSGYPAAPPAVPFA [TBX6]

Output:
[5.21, 5.21, 4.42, 2.93, 2.55]

For every record below, what is its protein stability index?
1. FSRVCRLHRGQLSLFCLEDKELLC [TRIM35]
2. FNIGLPDNIVNCNEFLCTLQKKLD [ZNF277]
3. WSIPWKWLFGATAVALGGVALSVV [FKBP8]

Output:
1. 2.22
2. 2.48
3. 4.11

Here are 5 sequences. What values of protein stability index were reported for them?
1. DLVNRTPWKKCCFSGDGEYIVAGS [RBBP5]
2. SGGHERSRDRRRSSDRSRDSSHER [BTBD10]
3. NTLVTKTMEDTLMTVKQYEAARLE [ARFIP2]
4. LAGQFLEELRKFSSLCYKQRIKSQ [MOG]
5. NSLQSYQLSPNKHFSLRVQSRANG [PCDHGA10]

Output:
1. 2.64
2. 5.48
3. 4.19
4. 2.17
5. 3.41
